# System: DENV-2
# assay_method_text: microbe, parasite or virus in culture
# condition_description: Dengue virus, DENV2, read-out: EC50 against DENV-2, bound stated in text
recorded_endpoint: EC50

Request: Note EC50 for the compound shown: COc1cc2c(OCC#N)c3c(c(-c4ccc5c(c4)OCO5)c2cc1OC)C(=O)OC3 [Compound C156-P1]
Response: < 5 nM

====

# Tested on: DENV-1
# assay_method_text: microbe, parasite or virus in culture
# Format: cell-based, DENV-1 clone D19044_7M
# condition_description: Dengue virus, DENV1, Vero, 48 h, read-out: EC50 against DENV-1
recorded_endpoint: pEC50
Give bare numbers, as −log10 of the molar value.

Request: Give measured pEC50 for COc1cc2c(OCC#N)c3c(c(-c4ccc5c(c4)OCO5)c2cc1OC)C(=O)OC3 [Compound C156-P1] (DENV-1).
Response: 8.24
